The molecules listed here are annotated with their growth at 10 µM.
Assay: Growth inhibition of human HCT116 cells assessed as cell growth at 10 uM incubated for 48 hrs by sulforhodamine B assay relative to control
Format: functional
Details: HCT-116, 48 h, read-out: Activity
Report the value in % with no unit label.

Worked cases, answers included:
INSERT INTO measurements (smiles_entry, observed_measurement) VALUES
  ('C[C@@H]1NC(c2ccc(Cl)cc2)=Nc2nc3ccccn3c2C1=O', 97),
  ('C[C@@H]1NC(c2ccc3ccccc3c2)=Nc2nc3ccccn3c2C1=O', 18.3),
  ('CC(C)(C)OC[C@@H]1NC(c2ccc(Br)cc2)=Nc2nc3ccccn3c2C1=O', 43.7);

// moving on: another record for growth at 10 µM
IN: Kindly indicate its recorded growth at 10 µM. Item: `C[C@@H]1NC(c2ccc(Cl)cc2Cl)=Nc2nc3ccccn3c2C1=O`
OUT: 28.1
